Just for reference, patent US20190248902A1 is where these values come from.

- Measurement Target: T1, Human ASGR-2 (human, UniProt P07307 1-311)
- T1 construct: Expressed on HEK 293 cells; cDNA GenBank NM_080913.3; also called huASGR-2; hASGR-2
- T1 sequence: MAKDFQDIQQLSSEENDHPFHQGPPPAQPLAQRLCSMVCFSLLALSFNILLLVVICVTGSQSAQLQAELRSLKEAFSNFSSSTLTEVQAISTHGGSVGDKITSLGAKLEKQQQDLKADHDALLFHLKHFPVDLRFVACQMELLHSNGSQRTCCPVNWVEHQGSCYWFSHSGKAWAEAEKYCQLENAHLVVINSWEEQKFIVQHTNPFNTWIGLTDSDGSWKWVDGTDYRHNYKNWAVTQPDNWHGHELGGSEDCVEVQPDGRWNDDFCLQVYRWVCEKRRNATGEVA
- Protocol Details: FACS on transfected HEK 293 cells; binding = signal at least 2x irrelevant IgG
Measured Quantity: binding result

Here's what some known entries look like.
Binder	Measured Quantity	Recorded Value
191G1 (antibody, V domains shown, Tested as hybridoma supernatant at normalized concentration) VH: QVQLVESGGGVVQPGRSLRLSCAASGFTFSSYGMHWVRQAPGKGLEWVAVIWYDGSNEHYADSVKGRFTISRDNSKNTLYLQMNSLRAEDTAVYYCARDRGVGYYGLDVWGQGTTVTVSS VL: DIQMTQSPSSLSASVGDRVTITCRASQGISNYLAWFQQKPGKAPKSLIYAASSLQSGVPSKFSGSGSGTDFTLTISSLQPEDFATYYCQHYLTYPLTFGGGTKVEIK	binding result	no binding
72G9 (antibody, V domains shown, Tested as hybridoma supernatant at normalized concentration) VH: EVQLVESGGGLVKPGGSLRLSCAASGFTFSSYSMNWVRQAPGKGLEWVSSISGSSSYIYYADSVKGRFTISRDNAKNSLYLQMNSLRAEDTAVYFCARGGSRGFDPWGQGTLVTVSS VL: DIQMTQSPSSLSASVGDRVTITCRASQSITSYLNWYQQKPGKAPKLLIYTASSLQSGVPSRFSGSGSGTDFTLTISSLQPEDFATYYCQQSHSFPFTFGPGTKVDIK	binding result	no binding
218G4 (antibody, V domains shown, Tested as hybridoma supernatant at normalized concentration) VH: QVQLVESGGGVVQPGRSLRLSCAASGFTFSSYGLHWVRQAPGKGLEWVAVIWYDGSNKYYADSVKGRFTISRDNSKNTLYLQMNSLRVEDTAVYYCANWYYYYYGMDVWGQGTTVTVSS VL: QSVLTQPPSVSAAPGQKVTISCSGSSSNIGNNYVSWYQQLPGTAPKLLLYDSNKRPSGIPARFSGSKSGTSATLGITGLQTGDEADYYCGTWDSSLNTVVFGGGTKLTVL	binding result	no binding
22G5 (antibody, V domains shown, Tested as hybridoma supernatant at normalized concentration) VH: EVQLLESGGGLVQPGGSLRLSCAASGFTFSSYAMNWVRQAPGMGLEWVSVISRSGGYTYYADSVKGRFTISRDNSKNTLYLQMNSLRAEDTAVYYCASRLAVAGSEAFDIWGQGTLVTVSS VL: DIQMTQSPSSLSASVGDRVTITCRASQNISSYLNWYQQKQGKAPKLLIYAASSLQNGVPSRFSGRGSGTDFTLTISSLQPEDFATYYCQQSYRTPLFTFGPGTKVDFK	binding result	no binding
56E5 (antibody, V domains shown, Tested as hybridoma supernatant at normalized concentration) VH: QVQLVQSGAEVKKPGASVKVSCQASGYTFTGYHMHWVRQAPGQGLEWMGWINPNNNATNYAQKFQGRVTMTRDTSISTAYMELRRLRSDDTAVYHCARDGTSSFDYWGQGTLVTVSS VL: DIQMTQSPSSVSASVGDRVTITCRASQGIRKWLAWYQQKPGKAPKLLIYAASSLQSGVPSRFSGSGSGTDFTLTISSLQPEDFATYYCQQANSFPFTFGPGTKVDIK	binding result	no binding
4B1 (antibody, V domains shown, Tested as hybridoma supernatant at normalized concentration) VH: QVQLQESGPGLVKPSETLSLTCSVSGDSISSYSWSWIRQPAGKGLEWIGRIYTSGSTNYIPSLKSRITMSVDTSKKQFSLKLSSVTAADTAVYYCARDLKSSGCLFFDYWGQGTLVTVSS VL: DIQMTQSPSSLSASVGDRVTITCRASHTIRTYLNWYQQKPGKAPKLLIYAASSLQSGVPSRINGSGSGTDFTLTITNLQPEDFATYYCQQSYNISFTFGPGTKVDIK	binding result	no binding

# binder 7G4 (antibody, V domains shown, Tested as hybridoma supernatant at normalized concentration) VH: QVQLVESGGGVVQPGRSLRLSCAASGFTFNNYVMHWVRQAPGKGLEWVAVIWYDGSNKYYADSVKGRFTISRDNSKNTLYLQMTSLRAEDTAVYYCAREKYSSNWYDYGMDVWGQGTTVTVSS VL: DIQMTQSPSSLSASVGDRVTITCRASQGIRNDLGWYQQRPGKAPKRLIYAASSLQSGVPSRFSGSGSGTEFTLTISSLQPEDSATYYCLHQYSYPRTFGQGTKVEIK ; its binding result = no binding

# binder 5E5 (antibody, V domains shown, Tested as hybridoma supernatant at normalized concentration) VH: QVQLVESGGGVVQPGRSLRLSCAASGFTFSNYVMHWVRQAPGKGLEWVAVIWYDGSNKYYADSVKGRFTISRDNSKNTLYLQMNSLRAEDTAVYYCTREVYSSGWYDYGMDVWGQGTTVTVSS VL: DIQMTQSPSSLSASVGDRVTITCRASQGIRNDLGWYQQKPGKAPKRLIYAASSLQSGVPSRFSGSGSGTEFTLTISSLQPEDFATYYCLQHYSYPRTFGQGTKVEVK ; its binding result = no binding

# binder 194C1 (antibody, V domains shown, Tested as hybridoma supernatant at normalized concentration) VH: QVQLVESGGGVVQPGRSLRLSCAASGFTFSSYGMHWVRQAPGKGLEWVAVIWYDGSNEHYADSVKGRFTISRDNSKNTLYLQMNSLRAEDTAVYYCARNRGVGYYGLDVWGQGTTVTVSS VL: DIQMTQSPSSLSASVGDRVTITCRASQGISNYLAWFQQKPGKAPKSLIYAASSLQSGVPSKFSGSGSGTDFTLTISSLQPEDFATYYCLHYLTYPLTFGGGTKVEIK ; its binding result = no binding

# binder 191G10 (antibody, V domains shown, Tested as hybridoma supernatant at normalized concentration) VH: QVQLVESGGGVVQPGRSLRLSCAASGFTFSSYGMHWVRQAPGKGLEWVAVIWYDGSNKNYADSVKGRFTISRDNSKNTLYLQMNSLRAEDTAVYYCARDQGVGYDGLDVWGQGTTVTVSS VL: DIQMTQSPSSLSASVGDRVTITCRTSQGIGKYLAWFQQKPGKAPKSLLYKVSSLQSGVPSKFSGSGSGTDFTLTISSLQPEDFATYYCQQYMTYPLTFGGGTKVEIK ; its binding result = no binding
